Source listed as paper PMC7255010.

Tested on: SW620
assay procedure: Cell proliferation, CCK-8
Assay type: cell-based
assay setup: Homo sapiens, SW-620; SW620, CCK8, 48 h

{"compound": "Cc1cc(F)c(Br)cc1NS(=O)(=O)c1ccc(NS(=O)(=O)c2cc(Cl)cc(Cl)c2)cc1CN1CCOC[C@H]1C [MDL-811]", "reading unit": "µM", "IC50": 16.7}

---

Test system: Caco2
assay procedure: Cell proliferation, CCK-8
Assay type: cell-based
assay setup: Homo sapiens, Caco-2; Caco2, CCK8, 48 h
pIC50: −log10 of the molar value.

{"chemical string": "Cc1cc(F)c(Br)cc1NS(=O)(=O)c1ccc(NS(=O)(=O)c2cc(Cl)cc(Cl)c2)cc1CN1CCOC[C@H]1C", "pIC50": 4.54}
